Where do these numbers come from? They come from ChEMBL document CHEMBL1933037.

Each item that follows carries a reported MIC.
system: Priestia megaterium; assay: Antibacterial activity against Bacillus megaterium ATCC 19213 after overnight incubation by microplate dilution method; assay type: functional
Peptide text beside a SMILES is read from it.
REPORTED METRIC: MIC (µg/mL)

>>> reported_measurement("CC(C)C[C@@H]1NC(=O)[C@H](CCCN)NC(=O)[C@H](C(C)C)NC(=O)[C@@H]2C[C@@H](N)CN2C(=O)[C@@H](Cc2ccccc2)NC(=O)[C@H](CC(C)C)NC(=O)[C@H](CCCN)NC(=O)[C@H](C(C)C)NC(=O)[C@@H]2CCCN2C(=O)[C@@H](Cc2ccccc2)NC1=O")
6.25
>>> reported_measurement("CC(C)C[C@@H]1NC(=O)[C@H](CCCN)NC(=O)[C@H](C(C)C)NC(=O)[C@@H]2CCCN2C(=O)[C@@H](Cc2ccccc2)NC(=O)[C@H](CC(C)C)NC(=O)[C@H](CCCN)NC(=O)[C@H](C(C)C)NC(=O)[C@@H]2CCCN2C(=O)[C@@H](Cc2ccccc2)NC1=O [GRAMICIDIN S] (HELM PEPTIDE1{L.[dF].P.V.[Orn].L.[dF].P.V.[Orn]}$PEPTIDE1,PEPTIDE1,1:R1-10:R2$$$V2.0)")
3.13
>>> reported_measurement("CCCCCCCC(=O)N[C@H]1C[C@H]2C(=O)N[C@@H](C(C)C)C(=O)N[C@@H](CCCN)C(=O)N[C@@H](CC(C)C)C(=O)N[C@H](Cc3ccccc3)C(=O)N3CCC[C@H]3C(=O)N[C@@H](C(C)C)C(=O)N[C@@H](CCCN)C(=O)N[C@@H](CC(C)C)C(=O)N[C@H](Cc3ccccc3)C(=O)N2C1")
6.25
>>> reported_measurement("CC(C)C[C@@H]1NC(=O)[C@H](CCCN)NC(=O)[C@H](C(C)C)NC(=O)[C@@H]2C[C@H](N)CN2C(=O)[C@@H](Cc2ccccc2)NC(=O)[C@H](CC(C)C)NC(=O)[C@H](CCCN)NC(=O)[C@H](C(C)C)NC(=O)[C@@H]2CCCN2C(=O)[C@@H](Cc2ccccc2)NC1=O")
6.25

----------
test system: Bacillus subtilis; assay: Antibacterial activity against Bacillus subtilis NBRC 3513 after overnight incubation by microplate dilution method; format: functional
Peptide text beside a SMILES is read from it.
REPORTED METRIC: MIC (µg/mL)

>>> reported_measurement("CC(C)C[C@@H]1NC(=O)[C@H](CCCN)NC(=O)[C@H](C(C)C)NC(=O)[C@@H]2CCCN2C(=O)[C@@H](Cc2ccccc2)NC(=O)[C@H](CC(C)C)NC(=O)[C@H](CCCN)NC(=O)[C@H](C(C)C)NC(=O)[C@@H]2CCCN2C(=O)[C@@H](Cc2ccccc2)NC1=O [GRAMICIDIN S] (HELM PEPTIDE1{L.[dF].P.V.[Orn].L.[dF].P.V.[Orn]}$PEPTIDE1,PEPTIDE1,1:R1-10:R2$$$V2.0)")
3.13
>>> reported_measurement("CCCCCCCC(=O)N[C@H]1C[C@H]2C(=O)N[C@@H](C(C)C)C(=O)N[C@@H](CCCN)C(=O)N[C@@H](CC(C)C)C(=O)N[C@H](Cc3ccccc3)C(=O)N3CCC[C@H]3C(=O)N[C@@H](C(C)C)C(=O)N[C@@H](CCCN)C(=O)N[C@@H](CC(C)C)C(=O)N[C@H](Cc3ccccc3)C(=O)N2C1")
12.5
>>> reported_measurement("CC(C)C[C@@H]1NC(=O)[C@H](CCCN)NC(=O)[C@H](C(C)C)NC(=O)[C@@H]2C[C@@H](N)CN2C(=O)[C@@H](Cc2ccccc2)NC(=O)[C@H](CC(C)C)NC(=O)[C@H](CCCN)NC(=O)[C@H](C(C)C)NC(=O)[C@@H]2CCCN2C(=O)[C@@H](Cc2ccccc2)NC1=O")
6.25
>>> reported_measurement("CC(C)C[C@@H]1NC(=O)[C@H](CCCN)NC(=O)[C@H](C(C)C)NC(=O)[C@@H]2C[C@H](N)CN2C(=O)[C@@H](Cc2ccccc2)NC(=O)[C@H](CC(C)C)NC(=O)[C@H](CCCN)NC(=O)[C@H](C(C)C)NC(=O)[C@@H]2CCCN2C(=O)[C@@H](Cc2ccccc2)NC1=O")
6.25

----------
Each item that follows carries a reported MIC.
test system: Staphylococcus epidermidis; test: Antibacterial activity against Staphylococcus epidermidis NBRC 12933 after overnight incubation by microplate dilution method; type: functional
Peptide text beside a SMILES is read from it.
REPORTED METRIC: MIC (µg/mL)

>>> reported_measurement("CCCCCCCC(=O)N[C@H]1C[C@H]2C(=O)N[C@@H](C(C)C)C(=O)N[C@@H](CCCN)C(=O)N[C@@H](CC(C)C)C(=O)N[C@H](Cc3ccccc3)C(=O)N3CCC[C@H]3C(=O)N[C@@H](C(C)C)C(=O)N[C@@H](CCCN)C(=O)N[C@@H](CC(C)C)C(=O)N[C@H](Cc3ccccc3)C(=O)N2C1")
6.25
>>> reported_measurement("CC(C)C[C@@H]1NC(=O)[C@H](CCCN)NC(=O)[C@H](C(C)C)NC(=O)[C@@H]2CCCN2C(=O)[C@@H](Cc2ccccc2)NC(=O)[C@H](CC(C)C)NC(=O)[C@H](CCCN)NC(=O)[C@H](C(C)C)NC(=O)[C@@H]2CCCN2C(=O)[C@@H](Cc2ccccc2)NC1=O [GRAMICIDIN S] (HELM PEPTIDE1{L.[dF].P.V.[Orn].L.[dF].P.V.[Orn]}$PEPTIDE1,PEPTIDE1,1:R1-10:R2$$$V2.0)")
3.13
>>> reported_measurement("CC(C)C[C@@H]1NC(=O)[C@H](CCCN)NC(=O)[C@H](C(C)C)NC(=O)[C@@H]2C[C@H](N)CN2C(=O)[C@@H](Cc2ccccc2)NC(=O)[C@H](CC(C)C)NC(=O)[C@H](CCCN)NC(=O)[C@H](C(C)C)NC(=O)[C@@H]2CCCN2C(=O)[C@@H](Cc2ccccc2)NC1=O")
6.25
>>> reported_measurement("CC(C)C[C@@H]1NC(=O)[C@H](CCCN)NC(=O)[C@H](C(C)C)NC(=O)[C@@H]2C[C@@H](N)CN2C(=O)[C@@H](Cc2ccccc2)NC(=O)[C@H](CC(C)C)NC(=O)[C@H](CCCN)NC(=O)[C@H](C(C)C)NC(=O)[C@@H]2CCCN2C(=O)[C@@H](Cc2ccccc2)NC1=O")
6.25
